tgt: human DGKα (Homo sapiens (Human), UniProt P23743)
Sequence (P23743 whole entry): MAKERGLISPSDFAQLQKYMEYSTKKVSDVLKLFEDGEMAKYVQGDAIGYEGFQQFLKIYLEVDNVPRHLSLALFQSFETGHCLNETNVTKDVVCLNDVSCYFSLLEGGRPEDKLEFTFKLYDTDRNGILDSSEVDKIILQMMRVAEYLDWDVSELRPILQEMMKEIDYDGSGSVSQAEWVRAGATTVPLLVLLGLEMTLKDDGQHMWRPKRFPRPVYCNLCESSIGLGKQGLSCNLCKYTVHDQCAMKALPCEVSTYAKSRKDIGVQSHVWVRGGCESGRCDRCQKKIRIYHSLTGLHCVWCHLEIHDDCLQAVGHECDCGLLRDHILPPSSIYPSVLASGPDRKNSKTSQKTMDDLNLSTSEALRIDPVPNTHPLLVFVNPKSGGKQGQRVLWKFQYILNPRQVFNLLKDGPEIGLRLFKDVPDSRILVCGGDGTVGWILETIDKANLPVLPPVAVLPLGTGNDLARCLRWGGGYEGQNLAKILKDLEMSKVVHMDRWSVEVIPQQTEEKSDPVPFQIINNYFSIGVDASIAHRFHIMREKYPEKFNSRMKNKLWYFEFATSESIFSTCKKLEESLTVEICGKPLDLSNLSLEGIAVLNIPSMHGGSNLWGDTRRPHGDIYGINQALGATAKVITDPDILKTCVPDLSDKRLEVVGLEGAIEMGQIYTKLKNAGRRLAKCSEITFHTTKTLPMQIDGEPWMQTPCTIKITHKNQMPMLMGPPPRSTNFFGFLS
assay_protocol: DGKα Biochemical Activity Assay (ADP-Glo)
condition_info: recombinant DGKα 1 nM, 100 μM ATP, 18:1 DAG/POPS/octylglucoside micelles, 1 hour at 25° C.; geometric mean; read-out: HTBS DGKa 1X ATP KM IC50
This listing pairs molecules with measured IC50.
Express your answer in nM, writing the number without its unit.

Input Cc1nnc2nc(N3CCOCc4c(C#CC5(C(C)(F)F)CC5)cccc43)c3c(F)cncc3n12 [Example 94] , output reported IC50.
25.1

Input CC(C)(C#N)C#Cc1cccc2c1CCCN2c1nc2nncn2c2ncc(F)cc12 [Example 147] , output reported IC50.
4.38

Input Cc1nnc2nc(N3CCOCc4c(C#CC(C)(C)C(F)(F)F)cccc43)c3c(F)cncc3n12 [Example 76] , output reported IC50.
6.09

Input COc1ccc2c(N(C)c3cccc(-c4ccc(C5CC5)cc4)c3)nc3nncn3c2n1 [Example 129] , output reported IC50.
28.9

Input CN(c1cc(F)cc(C#CC2(C)CC2)c1)c1nc2nncn2c2cncc(F)c12 [Example 91] , output reported IC50.
6.25
